- Test system: human APOE RNA
- METHOD NOTES: Activity in APOE C57BL/6NTac-Apoeem7250 knock-in mice, single ICV bolus, 8 weeks (Example 11)
- Format: in vivo
- EXPERIMENTAL CONDITIONS: cortex; single ICV bolus 300 μg; 8 weeks post treatment; normalized to mouse Ppia
Strand notation (5' to 3'): a small letter for the sugar, then the base; units joined by * are phosphorothioate-linked, units joined directly phosphodiester-linked; [ ] holds rarer units or linkages, { } end groups; capitals alone tell only the bases. [ms] = mesyl phosphoramidate linkage; e = 2'-O-(2-methoxyethyl) (MOE); k = constrained ethyl (cEt); [5mC] = 5-methylcytosine; d = 2'-deoxy (DNA)
TEST READOUT: APOE RNA (% control) Cortex

## Input Report APOE RNA (% control) Cortex for 1693105: 6-10-4 MOE gapmer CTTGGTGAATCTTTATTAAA, linkages sosssszzzssssszssss (e[5mC]*eTeT*eG*eG*eT*dG[ms]dA[ms]dA[ms]dT*d[5mC]*dT*dT*dT*dA[ms]dT*eT*eA*eA*eA) [compound 1693105] please.
## Output 58 % control

Parameter requested: APOE RNA (% control) Cortex. Apply to each item below.
1. 1652900: 6-10-4 MOE gapmer GTGAATCTTTATTAAACTAG, linkages sooooossssssssssoss (antisense eG*eTeGeAeAeTd[5mC]*dT*dT*dT*dA*dT*dT*dA*dA*dA*e[5mC]eT*eA*eG) [compound 1652900]
2. 1809637 (kA*e[5mC]eTeT*eG*kG*dT*dG[ms]dA[ms]dA[ms]dT*d[5mC]*dT*dT*dT*dA[ms]kT*kT*kA*kA; antisense) [Compound 1809637]
3. Compound No. 1517891: comparator of WO 2022/066956; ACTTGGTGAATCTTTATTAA, sugar eeeeeddddddddddeeeee, linkages sooosssssssssssooss (MOE gapmer, mixed PS/PO linkages, chemistry not fully specified) [reference compound]

## Output
83 % control
20 % control
56 % control

###

Hi there, I'd appreciate the recorded APOE RNA (% control) Cortex for every entry that follows.
- Tested on: human APOE RNA
- METHOD NOTES: Duration of action study in APOE C57BL/6NTac-Apoeem7250 knock-in mice (Example 16)
- Format: in vivo
- EXPERIMENTAL CONDITIONS: cortex; 300 μg ICV; 112 days post-dose
- Protocol: Modified oligonucleotides described above were tested in the APOE C57BL/6NTac-Apoeem7250 knock-in mouse model described above. APOE C57BL/6NTac-Apoeem7250 knock-in mice were divided into groups of 2-4 mice each. […] Mice were sacrificed at various timepoints as indicated in the table below and RNA was extracted from cortical brain tissue and spinal cord for quantitative real-time RT-PCR analysis of RNA expression of APOE using primer probe set RTS3073 (described herein above). […]
Strand notation (5' to 3'): a small letter for the sugar, then the base; units joined by * are phosphorothioate-linked, units joined directly phosphodiester-linked; [ ] holds rarer units or linkages, { } end groups; capitals alone tell only the bases. [PN] = cyclic guanidine phosphoramidate internucleoside linkage ([pn] in the publication); [ms] = mesyl phosphoramidate linkage; e = 2'-O-(2-methoxyethyl) (MOE); k = constrained ethyl (cEt); [5mC] = 5-methylcytosine; d = 2'-deoxy (DNA)
One number for each entry, in % control.

See these solved cases before continuing.
## Input May I ask what APOE RNA (% control) Cortex has been recorded for 1721303: 6-10-4 MOE gapmer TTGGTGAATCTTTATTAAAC, linkages s[pn][pn][pn]oossssssssssoss (eT*eT[PN]eG[PN]eG[PN]eTeGdA*dA*dT*d[5mC]*dT*dT*dT*dA*dT*dT*eAeA*eA*e[5mC]) [compound 1721303] ?
## Output 75

## Input Same read-out for 1746800 (k[5mC]*dT[ms]kT*dG[ms]dG[ms]kT*dG[ms]dA[ms]dA[ms]dT*d[5mC]*dT*dT*dT*dA[ms]dT*kT*dA[ms]kA*kA; antisense) [Compound 1746800] ?
## Output 52

## Input Request: 1746789 (k[5mC]*dT[ms]kT*dG[ms]kG*dT[ms]dG[ms]dA[ms]dA[ms]dT*d[5mC]*dT*dT*dT*dA[ms]dT*kT*kA*dA[ms]kA; antisense) [Compound 1746789]
## Output 63

Attention now shifts to the item below.
## Input Requested field: APOE RNA (% control) Cortex. Item: 1746790 (k[5mC]*dT[ms]kT*dG[ms]dG[ms]kT*dG[ms]dA[ms]dA[ms]dT*d[5mC]*dT*dT*dT*dA[ms]dT*kT*kA*dA[ms]kA; antisense) [Compound 1746790]
## Output 75

###

For each entry below, report its APOE RNA (% UTC) 205 nM value.
- System: human APOE RNA
- METHOD NOTES: Dose-dependent inhibition of human APOE RNA in HepG2 cells, electroporation, 50,000 cells per well, RT-PCR normalized to GAPDH (Example 4, Tables 8-10)
- Format: cell-based
- EXPERIMENTAL CONDITIONS: HepG2 cells, electroporation, 24-hour treatment, 205 nM, Table 8
Strand notation (5' to 3'): a small letter for the sugar, then the base; units joined by * are phosphorothioate-linked, units joined directly phosphodiester-linked; [ ] holds rarer units or linkages, { } end groups; capitals alone tell only the bases. [ms] = mesyl phosphoramidate linkage; e = 2'-O-(2-methoxyethyl) (MOE); k = constrained ethyl (cEt); [5mC] = 5-methylcytosine; d = 2'-deoxy (DNA)
Answers are plain numbers, in % UTC.

## Input Using the record for 1778111: modified oligonucleotide complementary to human APOE RNA (eA*e[5mC]eTeTeG*kG*dT*dG[ms]dA[ms]dA*dT*d[5mC]*dT*dT*dT*dA[ms]eTeT*eA*eA; antisense) [compound 1778111] , report its APOE RNA (% UTC) 205 nM.
## Output 53

Provide APOE RNA (% UTC) 205 nM for all items below, preserving their order.
1. 1778115: modified oligonucleotide complementary to human APOE RNA (eA*e[5mC]eTeTkGkG*dT*dG[ms]dA[ms]dA*dT*d[5mC]*dT*dT*dT*dA[ms]eTeT*eA*eA; antisense) [compound 1778115]
2. 1778114: modified oligonucleotide complementary to human APOE RNA (eA*e[5mC]eTeTkG*kG*dT*dG[ms]dA[ms]dA*dT*d[5mC]*dT*dT*dT*dA[ms]eTeT*eA*eA; antisense) [compound 1778114]
3. 1778129: modified oligonucleotide complementary to human APOE RNA (eA*e[5mC]eTeTeG*kG*dT*dG[ms]dA[ms]dA*dT*d[5mC]*dT*dT*dT*dA[ms]kT*kT*eA*eA; antisense) [compound 1778129]

## Output
1: 72; 2: 67; 3: 60

###

- Tested on: human APOE RNA
- METHOD NOTES: Activity in APOE C57BL/6NTac-Apoeem7250 knock-in mice, single ICV bolus, 4 weeks (Example 10)
- Format: in vivo
- EXPERIMENTAL CONDITIONS: cortex; single ICV bolus 300 μg; 4 weeks post treatment; normalized to mouse Ppia
- Experimental: Modified oligonucleotides described above were tested in the APOE C57BL/6NTac-Apoeem7250 knock-in mouse model described above. APOE C57BL/6NTac-Apoeem7250 knock-in mice were divided into groups of 2-4 mice each. […] Four weeks post treatment, mice were sacrificed and RNA was extracted from cortical brain tissue and spinal cord for quantitative real-time RT-PCR analysis of RNA expression of APOE using human primer probe set RTS3073 (described herein above). […]
Strand notation (5' to 3'): a small letter for the sugar, then the base; units joined by * are phosphorothioate-linked, units joined directly phosphodiester-linked; [ ] holds rarer units or linkages, { } end groups; capitals alone tell only the bases. [ms] = mesyl phosphoramidate linkage; e = 2'-O-(2-methoxyethyl) (MOE); k = constrained ethyl (cEt); [5mC] = 5-methylcytosine; d = 2'-deoxy (DNA)
TEST READOUT: APOE RNA (% control) Cortex
Give bare numbers, in % control.

The cases that follow already have their APOE RNA (% control) Cortex on record.
## Input Report APOE RNA (% control) Cortex for 1746797 (k[5mC]*kT*dT[ms]dG[ms]dG[ms]kT*dG[ms]dA[ms]dA[ms]dT*d[5mC]*dT*dT*dT*dA[ms]dT*kT*dA[ms]kA*kA; antisense) [Compound 1746797] please.
## Output 72

## Input Further, for 1757574 (eA*e[5mC]eTeT*eG*eG*dT*dG[ms]dA[ms]dA[ms]dT*d[5mC]*dT*dT*dT*dA[ms]kT*kT*eA*eA; antisense) [Compound 1757574] ?
## Output 43

## Input Would you mind doing 1778120 (eA*e[5mC]eTeTeGeG*dT*dG[ms]dA[ms]dA*dT*d[5mC]*dT*dT*dT*dA[ms]kTeT*eA*eA; antisense) [Compound 1778120] as well?
## Output 47

## Input And for 1779699 (e[5mC]*eTeT*kG*kG*eT*dG[ms]dA[ms]dA[ms]dT*d[5mC]*dT*dT*dT*dA[ms]dT*eT*eA*eA*eA; antisense) [Compound 1779699] ?
## Output 44

## Input Do the same for 1785589 (k[5mC]*kT*kT*dG[ms]dG[ms]dT[ms]dG*dA*dA*dT[ms]d[5mC][ms]dT*dT*dT*dA*dT*kT*kA*dA[ms]kA; antisense) [Compound 1785589] please
## Output 32

Record APOE RNA (% control) Cortex for all entries; do not skip any.
1. 1779961 (e[5mC]*eTeT*kG[ms]kG*eT*dG[ms]dA[ms]dA[ms]dT*d[5mC]*dT*dT*dT*dA[ms]dT*eT*eA*eA*eA; antisense) [Compound 1779961]
2. 1778125: modified oligonucleotide complementary to human APOE RNA (eA*e[5mC]eTeTeGeG*dT*dG[ms]dA[ms]dA*dT*d[5mC]*dT*dT*dT*dA[ms]kTkT*eA*eA; antisense) [compound 1778125]
3. 1753989 (k[5mC]*dT[ms]kT*dG[ms]kG*dT*dG[ms]dA[ms]dA[ms]dT*d[5mC]*dT*dT*dT*dA[ms]kT*dT[ms]kA*dA[ms]kA; antisense) [Compound 1753989]
4. 1778114: modified oligonucleotide complementary to human APOE RNA (eA*e[5mC]eTeTkG*kG*dT*dG[ms]dA[ms]dA*dT*d[5mC]*dT*dT*dT*dA[ms]eTeT*eA*eA; antisense) [compound 1778114]

## Output
1: 39; 2: 40; 3: 54; 4: 37

## Input Reported APOE RNA (% control) Cortex for 1778108 (eA*e[5mC]eTeTeG*kG*dT*dG[ms]dA[ms]dA*dT*d[5mC]*dT*dT*dT*dA[ms]eT*eT*eA*eA; antisense) [Compound 1778108] : what is it?
## Output 60
